test.system: PKC theta kinase (Homo sapiens)
method.summary: PKC theta kinase inhibition, coupled-enzyme NADH absorbance assay (Ki)
Type: biochemical
settings: 240 μM ATP, 18 nM PKC theta, 30° C.; read-out: Ki PKC theta
Documented Ki across a set of molecules

# count of solved cases: 3
CCCc1cc(-c2ccnc3[nH]ncc23)cc(C2(C#N)CCCC2)c1 | < 500 nM
OC1CCc2ccc(-c3ccnc4[nH]ncc34)cc21 (centres unmarked) | > 2800 nM
CC(C)CC(C)(CN)c1cccc(-c2ccnc3[nH]ncc23)c1 (centres unmarked) | < 50 nM

Query: What value of Ki has been reported for the following molecule? CC(C)C(O)c1cc(-c2ccnc3[nH]ncc23)cc(C(C)(C)C#N)c1 (centres unmarked)
Result: < 500 nM

Query: Tell me the measured Ki of N[C@H]1CCC[C@@H]1c1cccc(-c2ccnc3[nH]ncc23)c1 , please.
Result: < 500 nM

----------
test.system: PKC theta kinase (Homo sapiens, UniProt Q04759)
Sequence (Q04759 whole entry): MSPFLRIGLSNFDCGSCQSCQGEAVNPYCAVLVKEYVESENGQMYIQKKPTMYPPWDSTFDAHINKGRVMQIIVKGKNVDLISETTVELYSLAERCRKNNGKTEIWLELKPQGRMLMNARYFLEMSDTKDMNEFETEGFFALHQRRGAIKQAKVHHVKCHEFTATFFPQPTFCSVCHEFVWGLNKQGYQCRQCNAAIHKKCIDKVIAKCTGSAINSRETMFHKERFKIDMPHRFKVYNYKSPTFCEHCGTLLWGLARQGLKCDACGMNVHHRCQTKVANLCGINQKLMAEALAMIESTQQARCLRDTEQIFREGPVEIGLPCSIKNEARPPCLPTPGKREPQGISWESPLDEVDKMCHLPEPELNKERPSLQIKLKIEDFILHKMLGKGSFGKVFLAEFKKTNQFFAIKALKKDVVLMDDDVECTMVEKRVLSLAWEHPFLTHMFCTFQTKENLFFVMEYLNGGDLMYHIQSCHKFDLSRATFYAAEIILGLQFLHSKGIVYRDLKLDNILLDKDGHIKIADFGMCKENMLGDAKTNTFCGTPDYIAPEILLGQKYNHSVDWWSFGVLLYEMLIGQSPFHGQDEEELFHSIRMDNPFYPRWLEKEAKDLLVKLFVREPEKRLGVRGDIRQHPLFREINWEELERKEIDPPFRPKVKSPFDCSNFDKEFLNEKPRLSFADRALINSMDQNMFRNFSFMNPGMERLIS
method.summary: PKC theta kinase inhibition, coupled-enzyme NADH absorbance assay (Ki)
Assay type: biochemical
settings: 240 μM ATP, 18 nM PKC theta, 30° C.; read-out: Ki PKC theta
This section presents molecules with their documented Ki values.

Solved cases (6 shown):
CCC(C)(CN)c1cc(F)cc(-c2ccnc3[nH]nc(Cl)c23)c1 (stereo not shown) | < 50 nM
CNCc1cc(-c2ccnc3[nH]ncc23)cc(C(C)(C)C#N)c1 | < 2800 nM
CC(C)=CCC(C)(CN)c1cccc(-c2ccnc3[nH]ncc23)c1 (stereo not shown) | < 50 nM
NCC1(c2cc(F)cc(-c3ccnc4[nH]nc(Cl)c34)c2)CCOCC1 | < 50 nM
CCC(C)(C#N)c1cc(-c2ccnc3[nH]ncc23)cc(C(C)F)c1 (stereo not shown) | < 500 nM
NC1(c2cccc(-c3ccnc4[nH]ncc34)c2)CC1 | < 2800 nM

Query: // fetch PKC theta kinase (Homo sapiens, UniProt Q04759) Ki for COc1ccc(C2(CN)CCC2)cc1-c1ccnc2[nH]ncc12
Result: > 700 nM

Query: Write down the reported Ki of CC(C)(C)OC(=O)NCCNc1cc(-c2ccnc3[nH]ncc23)cc(C(C)(C)C#N)c1 , test system: PKC theta kinase (Homo sapiens, UniProt Q04759).
Result: < 2800 nM

Query: Can you look up Ki on PKC theta kinase (Homo sapiens, UniProt Q04759) for C=C(C)c1cc(-c2ccnc3[nH]ncc23)cc(C(C)(C)C#N)c1 ?
Result: < 500 nM

Query: Give recorded Ki with PKC theta kinase (Homo sapiens, UniProt Q04759) for the following molecule: CC(C#N)(Cc1cccnc1)c1cccc(-c2ccnc3[nH]ncc23)c1 (stereo not shown)
Result: > 700 nM

Query: Provide the documented Ki with PKC theta kinase (Homo sapiens, UniProt Q04759) as the system for CCC(C)(C#N)c1cc(C)cc(-c2ccnc3[nH]ncc23)c1 (stereo not shown)
Result: < 500 nM

----------
The following compounds are shown together with reported Ki values.
test.system: PKC theta kinase (Homo sapiens, UniProt Q04759)
method.summary: PKC theta kinase inhibition, coupled-enzyme NADH absorbance assay (Ki)
Assay type: biochemical
settings: 240 μM ATP, 18 nM PKC theta, 30° C.; read-out: Ki PKC theta

CCC(C)(C#N)c1cc(CCCO)cc(-c2ccnc3[nH]ncc23)c1 (stereo not drawn) | < 0.05 µM

Query: // Ki lookup, key: CCC(C)(CN(C)C)c1cccc(-c2ccnc3[nH]ncc23)c1 (stereo not drawn)
Result: < 0.5 µM

Query: Record request: Ki value, item NCC1(c2cccc(-c3ccnc4[nH]ncc34)c2)CC=C(F)CC1 (stereo not drawn)
Result: < 0.05 µM

Query: Please give the measured Ki for this compound: Cc1cc(-c2ccnc3[nH]nc(C4CC4)c23)cc(C2(CN)CC2)c1
Result: < 0.05 µM

----------
Reported Ki values follow for various molecules
test.system: PKC alpha kinase (Homo sapiens, UniProt P17252)
method.summary: PKC alpha kinase inhibition, coupled-enzyme NADH absorbance assay (Ki)
Assay type: biochemical
settings: 130 μM ATP, 4.5 nM PKC alpha, 30° C.; read-out: Ki PKC alpha

Cc1cc(-c2ccnc3[nH]nc(C(F)(F)F)c23)cc(C2(CN)CCC2)c1 | < 0.5 µM

Query: Entry NCC1(c2cccc(-c3ccnc4[nH]ncc34)c2)CC1 has what Ki?
Result: < 2.8 µM

Query: # lookup: Ki of CCC(F)(CN)c1cc(C)cc(-c2ccnc3[nH]ncc23)c1 (stereo not drawn)
Result: < 0.5 µM

Query: Would you mind telling me what Ki value was observed for CC(C)(C)c1n[nH]c2nccc(-c3cc(Br)cc(C(C)(C)C#N)c3)c12 ?
Result: > 1.2 µM

Query: Which Ki reading was recorded for the molecule CCC(C)(CN)c1cc(Br)cc(-c2ccnc3[nH]ncc23)c1 (stereo not drawn) ?
Result: < 0.5 µM

Query: Reported Ki, molecule CC(O)c1cccc(-c2ccnc3[nH]ncc23)c1 (stereo not drawn) : ____
Result: > 1.2 µM

----------
test.system: PKC delta kinase (Homo sapiens)
Sequence (Q05655 whole entry): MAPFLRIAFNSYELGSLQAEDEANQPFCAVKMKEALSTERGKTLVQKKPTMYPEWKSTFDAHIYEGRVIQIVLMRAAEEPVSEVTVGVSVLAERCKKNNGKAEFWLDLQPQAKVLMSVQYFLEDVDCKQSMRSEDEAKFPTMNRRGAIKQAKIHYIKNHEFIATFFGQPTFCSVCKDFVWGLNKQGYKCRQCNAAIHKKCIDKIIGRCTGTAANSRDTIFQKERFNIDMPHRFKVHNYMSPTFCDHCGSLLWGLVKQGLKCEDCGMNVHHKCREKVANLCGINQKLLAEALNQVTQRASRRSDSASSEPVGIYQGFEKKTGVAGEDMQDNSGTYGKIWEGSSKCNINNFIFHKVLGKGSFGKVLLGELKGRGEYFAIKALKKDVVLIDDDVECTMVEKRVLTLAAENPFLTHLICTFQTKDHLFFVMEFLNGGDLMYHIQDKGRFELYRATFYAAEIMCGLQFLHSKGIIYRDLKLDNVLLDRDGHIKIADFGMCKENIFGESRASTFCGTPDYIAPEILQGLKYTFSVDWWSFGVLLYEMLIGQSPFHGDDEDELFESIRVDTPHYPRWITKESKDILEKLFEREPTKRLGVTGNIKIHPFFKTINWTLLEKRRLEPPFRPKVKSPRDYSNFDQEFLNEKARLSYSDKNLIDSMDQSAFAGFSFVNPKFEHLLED
method.summary: PKC delta kinase inhibition, coupled-enzyme NADH absorbance assay (Ki)
Assay type: biochemical
settings: 150 μM ATP, 46 nM PKC delta, 30° C.; read-out: Ki PKC delta
pKi: −log10 of the molar value.
Reported pKi values follow for various compounds

CC(C)(C#N)c1cc(-c2ccnc3[nH]ncc23)cc(N2CCNCC2)c1 | < 5.55
C=Cc1cc(-c2ccnc3[nH]ncc23)cc(C(C)(C)CN)c1 | > 5.55
COCCC(C)(C#N)c1cccc(-c2ccnc3[nH]ncc23)c1 (stereo not shown) | < 5.55
CC#CCC(C)(CN)c1cccc(-c2ccnc3[nH]ncc23)c1 (stereo not shown) | > 7.30
CCC(C)(CN)c1cc(Cl)cc(-c2ccnc3[nH]ncc23)c1 (stereo not shown) | > 6.30

Query: // pKi lookup, key: Cc1cc(-c2ccnc3[nH]ncc23)cc(C2(CN)CNC(=O)O2)c1 (stereo not shown)
Result: < 5.92

Query: Could you share which pKi value was measured for CCC(C)(C#N)c1cc(CCCF)cc(-c2ccnc3[nH]ncc23)c1 (stereo not shown) ?
Result: < 5.70

Query: What does the data say about its pKi? Entry: CCc1cc(-c2ccnc3[nH]ncc23)cc(C(C)(C)CN)c1
Result: > 5.55

Query: Suppose we examine the compound CCCc1cc(-c2ccnc3[nH]nc(C(F)(F)F)c23)cc(C2(C#N)CC2)c1 ; what pKi value has been reported?
Result: < 5.92

Query: Consider the compound shown here: NCC1(c2cc(F)cc(-c3ccnc4[nH]nc(Cl)c34)c2)CCC1 What is its recorded pKi?
Result: > 7.30

Query: Find the recorded pKi belonging to CCC(C)(C#N)c1cc(-c2ccnc3[nH]ncc23)cc(C(F)F)c1 (stereo not shown) and report it.
Result: < 5.70

Query: # pKi lookup, item C/C=C\c1cc(-c2ccnc3[nH]ncc23)cc(C(C)(CC)CN)c1 (stereo not shown)
Result: > 6.30

----------
In this section, each of the compounds is paired with its reported Ki.
test.system: PKC theta kinase (Homo sapiens)
method.summary: PKC theta kinase inhibition, coupled-enzyme NADH absorbance assay (Ki)
Assay type: biochemical
settings: 240 μM ATP, 18 nM PKC theta, 30° C.; read-out: Ki PKC theta

Example entries begin here.
CC(C)(CN)c1cc(-c2ccc[nH]2)cc(-c2ccnc3[nH]ncc23)c1 [Compound 38] | < 500 nM
CCCc1cc(-c2ccnc3[nH]nc(Cl)c23)cc(C(C)(CC)CN)c1 (stereo not drawn) [Compound 210] | < 50 nM
COCC[C@](C)(CN)c1cccc(-c2ccnc3[nH]nc(C(F)(F)F)c23)c1 [Compound 287] | < 50 nM

Query: Item under review: CC#CCC(C)(C#N)c1cccc(-c2ccnc3[nH]ncc23)c1 (stereo not drawn) [Compound 104] . Reported Ki?
Result: < 500 nM

Query: Data request, read-out Ki, for COc1ccc(C2(C#N)CCC2)cc1-c1ccnc2[nH]ncc12 [Compound 221]
Result: > 700 nM

Query: Recorded Ki of N#CC1(c2cccc(-c3ccnc4[nH]ncc34)c2)CCNCC1 [Compound 6] , please.
Result: < 500 nM

Query: Find the recorded Ki belonging to CC(C)(C#N)c1cc(-c2ccccc2)cc(-c2ccnc3[nH]ncc23)c1 [Compound 53] and report it.
Result: < 2800 nM

Query: Which Ki value belongs to N#CC1(c2cc(CC(N)=O)cc(-c3ccnc4[nH]nc(C(F)(F)F)c34)c2)CC1 [Compound 329] ?
Result: < 50 nM

Query: Fill in the blank: the reported Ki of CC(C)(C#N)c1cc(NCc2ccccc2)cc(-c2ccnc3[nH]ncc23)c1 [Compound 12] is ____.
Result: < 2800 nM

Query: So what's the measured Ki for this one? CCC(F)(CN)c1cc(C)cc(-c2ccnc3[nH]ncc23)c1 (stereo not drawn) [Compound 227]
Result: < 50 nM

Query: Entry CCC(C)(CN)c1cc(CCCF)cc(-c2ccnc3[nH]ncc23)c1 (stereo not drawn) [Compound 160] has what Ki?
Result: < 50 nM

Query: Which measured Ki value corresponds to CCC(C)(CN)c1cc(F)cc(-c2ccnc3[nH]nc(C(F)(F)F)c23)c1 (stereo not drawn) [Compound 277] ?
Result: < 50 nM

Query: Which Ki value is on record for CC(C#N)(CC(F)F)c1cccc(-c2ccnc3[nH]ncc23)c1 (stereo not drawn) [Compound 99] ?
Result: < 500 nM

Query: I'd like to know its Ki. The compound in question is C#CCC(CC)(CN)c1cccc(-c2ccnc3[nH]ncc23)c1 (stereo not drawn) [Compound 178]
Result: < 50 nM

Query: Using the record for OCC1(c2cccc(-c3ccnc4[nH]ncc34)c2)CCNC1 (stereo not drawn) [Compound 196] , report its Ki.
Result: < 50 nM

Query: Given the compound CCC(CN)c1cccc(-c2ccnc3[nH]ncc23)c1 (stereo not drawn) [Compound 232] , what is its reported Ki?
Result: < 50 nM

Query: Which measured Ki value corresponds to Cc1cc(-c2ccnc3[nH]ncc23)cc(C2(C#N)CCC2)c1 [Compound 85] ?
Result: < 50 nM

Query: Report Ki for Cc1cc(-c2ccnc3[nH]ncc23)cc(C2(CN)CCC2)c1 [Compound 145] please.
Result: < 50 nM
